TESTED ON: T1, Recombinant human CD4 (R&D Systems, Cat. 10327-CD) (human, UniProt P01730 26-390, limits assumed)
T1 construct: Soluble analyte in the Octet assay
ASSAY EXPLANATION: BLI Octet, mAb on anti-mouse Fc sensor, CD4 100/50/25 nM, 1:1 global fit;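 also: antibodies loaded at 10 µg/mL, an unrelated mouse-derived antibody served as internal reference control, association and dissociation phases fitted after Savitzky-Golay smoothing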
# reported kon; entries follow
ENDPOINT: kon (M⁻¹ s⁻¹)

- 75110_04F22A (antibody, V domains shown, Tested as antibody purified from AlivaMab Mouse hybridoma supernatant (captured by anti-mouse IgG Fc)) VH: EVQLVESGGGLVQPGGSLRLSCAASGFTFSSYDIHWVRQATGKGLEWVSTIGTAGDTYYPGSVKGRFTISRENAKNSLYLQMNSLRAGDTAVYYCARGGYYYYGMDVWGQGTTVTVSS VL: EIVLTQSPGTLSLSPGERATLSCRASQSVYSSYLAWYQQKPGQAPRLLIYGASSRATGIPDRFSGSGSGTDFTLTISRLEPEDFAVYYCQQFGTSPFTFGPGTKVDIK: 35000
- 75110_05E13A (antibody, V domains shown, Tested as antibody purified from AlivaMab Mouse hybridoma supernatant (captured by anti-mouse IgG Fc)) VH: EVQLVESGGDLVKPGGSLRLSCAASGFSFSNAWMSWVRQAPGKGLEWVGRVESKTDGGTTDYAAPVKDRFTISRDDSKYTLYLQMNSLKTEDSAVYYCTIGGGFGLELYGFFDYWGQGTLVTVSS VL: DIQMTQSPSTLSASVGDRVTITCRASQSISSWLAWYQQKPGKAPMLLIYKASSLESGVPSRFSGSGSGTEFTLTISSLQPDDFATYYCLQYNSYYTFGQGTKLEIK: 100000
- 75110_03I08A (antibody, V domains shown, Tested as antibody purified from AlivaMab Mouse hybridoma supernatant (captured by anti-mouse IgG Fc)) VH: QVQLQESGPGLVKPSETLSLTCTVSGGSISSYYWSWIRQPPGKGLEWIGYIYYSGSTNYNPSLKSRVTISVDTSKNQFSLKLSSVTAADTAVYYCAREGEQWFYGLDVWGQGTTVTVSS VL: EIVLTQSPGTLSLSPGERATLSCRASQSVSSTYLAWYQQKPGQAPRLLIYGSSSRATGIPDRFSGSGSGTDFTLTISRLEPEDFAVYYCQQYGNSFPITFGQGTRLEIK: 130000
- 75110_04K10A (antibody, V domains shown, Tested as antibody purified from AlivaMab Mouse hybridoma supernatant (captured by anti-mouse IgG Fc)) VH: EVQLVESGGGLVQPGGSLRLSCAASGFTFSSYWMSWVRQAPGKGLEWVANINQDGSEKYYVDSVKGRFTISRDNAKNSLYLQLNSLRAEDTAMYYCAREGGQWLSLDYWGQGTLVTVSS VL: DIQMTQSPSSVSASVGDRVTITCRASQGISSWLAWYQQKPGKAPKVLIYGVSSFQSGVPSRFSGSGSGTDFILTISSLQPEDFATYYCQQANSFPWTFGQGTKVEIK: 39000
- 75110_03D16A (antibody, V domains shown, Tested as antibody purified from AlivaMab Mouse hybridoma supernatant (captured by anti-mouse IgG Fc)) VH: EVQLVESGGGLVQPGGSLRLSCAASGFTFSSYWMSWVRQAPGKGLEWVANINQDGGEKYYVDSVKGRFTISRDNAKNSLYLQMNSLRAEDTAVYYCVREGGQWLALDYWGQGTLVTVSS VL: DIQMTQSPSSVSASVGDRVTITCRASQGISSWLTWYQQKPGKAPKFLIYAASSLQSGVPSRFSGSGFGTDFTLTISSLQPEDFATYYCQQANSFPWTFGQGTKVEIK: 78000
- 75110_01J09A (antibody, V domains shown, Tested as antibody purified from AlivaMab Mouse hybridoma supernatant (captured by anti-mouse IgG Fc)) VH: EVQLVESGGGLVQPGGSLRLSCVASGFTFSSYWMSWVRQAPGKGLEWVANTKEDGSDKYYVDSVKGRFTICRDNAKNSLYLQMNSLRAEDTAVYYCAREGGQWLALDYWGQGTLVTVSS VL: DIQMTQSPSSVSASVGDRVTINCRASQGISSWLAWYQQKPGKAPNLLIFGASSLQSGVPSRFSGSGFGTDFSLTITTLQPEDFATYHCQQANSFPWTFGQGTKVEIK: 37000
- 75110_04P06A (antibody, V domains shown, Tested as antibody purified from AlivaMab Mouse hybridoma supernatant (captured by anti-mouse IgG Fc)) VH: EVQLVESGGGLVQPGGSLRLSCAASGFTFSNYDMHWVRQATGKGLEWVSTIGTAGDTYYPGSVKGRFTISRENAKNSLYLQMNSLRAGDTAVYYCARGGDYYYGMDVWGQGTTVTVSS VL: EIVLTQSPDTLSLSPGERATLSCRASQSLSSVYLAWYQQKPGQAPRLLIYGASSRATGIPDRFSGSGSGTDFTLTINRLEPEDFVVYYCQQYGSSPFTFGPGTKVDIK: 24000
- 75110_04H17A (antibody, V domains shown, Tested as antibody purified from AlivaMab Mouse hybridoma supernatant (captured by anti-mouse IgG Fc)) VH: QVQLQESGPGLVKPSETLSLTCTVSGGSISTYYWSWIRQSAGKGLEWIGRIYTSERPNYNPSLKSRVTMSVDTSKNQFSLKLNSVSAADTAVYYCARELERPYYYGMDVWGQGTTVTVSS VL: DVQMTQSPSSLSASVGGRVTITCQASQDISNYLNWYQQKPGKAPKLLIYYASNLETGVPSRFSGSGSGTDFTFTISSLQPEDFATYYCQQYDNLPLTFGGGTKVEIK: 73000
- 75110_01C18A (antibody, V domains shown, Tested as antibody purified from AlivaMab Mouse hybridoma supernatant (captured by anti-mouse IgG Fc)) VH: EVQLVESGGGLIQPGGSLRLSCAASGFTVSSNYMNWVRQAPGKGLEWVSVIYAGDNTYSADSVKGRFTISRDNSNNTLCLQMNSLRAEDTAVYYCAREGGTTGAFDIWGQGTMVTVSS VL: DIQMTQSPSSVSASVGDRVTITCRASQGINSWLAWYQQKPGKAPKLLIYAASSLQSGVPSRFSGSGSGTDFTLTISSLQPEDFATYYCQQGNSFPYTFGQGTKLEIK: 200000
- 75110_01H18A (antibody, V domains shown, Tested as antibody purified from AlivaMab Mouse hybridoma supernatant (captured by anti-mouse IgG Fc)) VH: QVQLQQWGAGLLKPSETLSLTCAVYGGSFSGYYWSWIRQSPGKGLEWIGEINQSGSTNYNPSLKSRVTISVDTSKNQFSLKLSSVTAADTAVYYCARVINWFDSWGQGTLVTVSS VL: DIQMTQSPSSVSASVGDRVTITCRASQGISSWLAWYQQKPGKAPKLLIYAASSFQSGVPSRFSGSGSGTDFTLTISSLQTEDFATYYCQQANSFPYTFGQGTRLEIK: 99000
